The molecules listed here are annotated with their IC50.
# target_under_test: MAPK14 (human) (UniProt Q16539)
# Sequence (Q16539 whole entry, looked up): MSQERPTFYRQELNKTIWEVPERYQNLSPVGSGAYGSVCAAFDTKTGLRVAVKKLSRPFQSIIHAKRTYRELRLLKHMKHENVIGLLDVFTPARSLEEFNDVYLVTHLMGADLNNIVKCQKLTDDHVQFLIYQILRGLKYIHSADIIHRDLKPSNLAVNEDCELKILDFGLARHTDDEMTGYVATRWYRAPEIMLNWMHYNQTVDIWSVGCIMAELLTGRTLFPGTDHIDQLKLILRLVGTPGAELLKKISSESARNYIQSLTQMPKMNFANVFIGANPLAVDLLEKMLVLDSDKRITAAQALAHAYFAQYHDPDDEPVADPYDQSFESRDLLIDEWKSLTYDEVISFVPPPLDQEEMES
# test_summary: Inhibition of TNF-alpha Release in LPS Stimulated Whole Blood Culture
# particulars: blood cells
quantity_name: IC50

molecule=CSc1nc(-c2ccc(F)cc2)c(-c2ccnc(OC(C)C)c2)[nH]1 value="7.2 µM"
molecule=CSc1nc(-c2ccc(F)cc2)c(-c2ccnc(NCc3ccc(Cl)cc3)c2)[nH]1 value="14.8 µM"
molecule=CSc1nc(-c2ccc(F)cc2)c(-c2ccnc(NCCc3ccccc3)c2)[nH]1 value="14.9 µM"
molecule="CC(Nc1cc(-c2[nH]c(SCc3ccc([S+](C)[O-])cc3)nc2-c2ccc(F)cc2)ccn1)c1ccccc1 (stereo not given)" value="10 µM"
molecule=CSc1nc(-c2ccc(F)cc2)c(-c2ccnc(NCc3ccc(C)cc3)c2)[nH]1 value="17.3 µM"

* * *

# target_under_test: MAPK14 (human)
# test_summary: Inhibition of IL-1beta Production from LPS Stimulated PBMC
pIC50: −log10 of the molar value.
Threshold check on pIC50: at or above 6 gives condition met, strictly below gives condition not met.

compound=Fc1ccc(-c2nc(SCc3ccccc3)[nH]c2-c2ccnc(F)c2)cc1 category="condition not met"
compound=CSc1nc(-c2ccc(F)cc2)c(-c2ccnc(NCc3ccc(Cl)c(Cl)c3)c2)[nH]1 category="condition met"
compound=CSc1nc(-c2ccc(F)cc2)c(-c2cc[nH]c(=O)c2)[nH]1 category="condition met"
compound=CSc1nc(-c2ccc(F)cc2)c(-c2ccnc(NCc3ccc(Cl)cc3)c2)[nH]1 category="condition met"
compound=Fc1ccc(-c2nc(SCc3ccccc3)[nH]c2-c2ccnc(Cl)c2)cc1 category="condition not met"
compound="CC(Nc1cc(-c2[nH]c(SCc3ccccc3)nc2-c2ccc(F)cc2)ccn1)c1ccccc1 (centres undefined)" category="condition met"
compound=CSc1nc(-c2ccc(F)cc2)c(-c2ccnc(NCc3ccccc3)c2)[nH]1 category="condition met"
compound="C[S+]([O-])c1ccc(CSc2nc(-c3ccc(F)cc3)c(-c3ccnc(Cl)c3)[nH]2)cc1 (centres undefined)" category="condition not met"
compound="C[S+]([O-])c1ccc(CSc2nc(-c3ccc(F)cc3)c(-c3ccnc(NCc4ccccc4)c3)[nH]2)cc1 (centres undefined)" category="condition met"

* * *

The molecules listed here are annotated with their pIC50.
# target_under_test: UniProt Q16539
# test_summary: Inhibition of IL-1beta Production from LPS Stimulated PBMC
pIC50: −log10 of the molar value.
quantity_name: pIC50

molecule=CSc1nc(-c2ccc(F)cc2)c(-c2ccnc(Cl)c2)[nH]1 quantity_name=pIC50 value=6.46
molecule=COc1ccc(CNc2cc(-c3[nH]c(SCc4ccccc4)nc3-c3ccc(F)cc3)ccn2)cc1 quantity_name=pIC50 value=6.74
molecule=CSc1nc(-c2ccc(F)cc2)c(-c2ccnc(F)c2)[nH]1 quantity_name=pIC50 value=6.52
molecule=CSc1nc(-c2ccc(F)cc2)c(-c2ccnc(NCCc3ccccc3)c2)[nH]1 quantity_name=pIC50 value=7.51
molecule="C[S+]([O-])c1ccc(CSc2nc(-c3ccc(F)cc3)c(-c3ccnc(F)c3)[nH]2)cc1 (configuration not stated)" quantity_name=pIC50 value=5.61
molecule=CSc1nc(-c2ccc(F)cc2)c(-c2ccnc(OC(C)C)c2)[nH]1 quantity_name=pIC50 value=5.57
molecule="CC(Nc1cc(-c2[nH]c(SCc3ccc([S+](C)[O-])cc3)nc2-c2ccc(F)cc2)ccn1)c1ccccc1 (configuration not stated)" quantity_name=pIC50 value=7.40
molecule=Fc1ccc(-c2nc(SCc3ccccc3)[nH]c2-c2ccnc(NCc3ccccc3)c2)cc1 quantity_name=pIC50 value=6.70
molecule=CSc1nc(-c2ccc(F)cc2)c(-c2ccnc(NCc3ccc(C)cc3)c2)[nH]1 quantity_name=pIC50 value=7.07
molecule=COc1ccc(CNc2cc(-c3[nH]c(SC)nc3-c3ccc(F)cc3)ccn2)cc1 quantity_name=pIC50 value=7.25
molecule=CSc1nc(-c2ccc(F)cc2)c(-c2ccnc(Nc3ccccc3)c2)[nH]1 quantity_name=pIC50 value=7.52
molecule=COc1cc(-c2[nH]c(SC)nc2-c2ccc(F)cc2)ccn1 quantity_name=pIC50 value=6.82

Where do these numbers come from? They come from the Kinase Knowledgebase extract (Sharma et al. 2016).
